Tested on: RXRa DBDmut IVT, anti-RXR (DBD mutation: RXRa K156A/R161A, NR concentration 90 nM)
Experiment: PBM binding z-score (relative to random genomic background probes); higher = stronger binding; sequences stand for … in GC…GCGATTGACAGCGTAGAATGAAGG
Returns fulfilled if the recorded PBM binding z-score is greater than or equal to 2, and not fulfilled otherwise.

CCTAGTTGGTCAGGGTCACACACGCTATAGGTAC ... not fulfilled
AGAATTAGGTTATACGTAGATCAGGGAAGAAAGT ... not fulfilled
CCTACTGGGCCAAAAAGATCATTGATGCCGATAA ... not fulfilled
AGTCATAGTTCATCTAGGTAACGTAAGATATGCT ... fulfilled
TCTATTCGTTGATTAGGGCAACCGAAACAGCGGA ... not fulfilled
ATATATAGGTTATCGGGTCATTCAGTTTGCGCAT ... fulfilled

Decide: is the reported value of PBM binding z-score for `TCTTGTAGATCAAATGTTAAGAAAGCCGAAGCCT` equal to or greater than 2? not fulfilled
